Molecular target: VEGF121 (Homo sapiens, UniProt P15692-9 27-147)
Sequence (P15692 other isoform, or with tags, fused parts or gaps): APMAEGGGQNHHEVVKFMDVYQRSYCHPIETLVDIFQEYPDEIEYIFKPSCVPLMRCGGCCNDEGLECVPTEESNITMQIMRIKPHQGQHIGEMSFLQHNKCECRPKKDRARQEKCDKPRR
Assay: SPR; SPR BIAcore 2000, CM5 chip, immobilized protein ~200 RU, PBS + Tween-20 running buffer (pH not stated), 25 C, aptamer 0.2-100 nM, 1:1 Langmuir fit
Settings: protein: recombinant; tags: carrier free; chain copies: 2; hairpin (CD)
recorded-metric: Kd (µM)
Kindly provide the numeric value in µM only, without the unit symbol.

Challenge: Given the entry CAATTGGGCCCGTCCGTATGGTGGGT (XNA, phosphorothioate linkages C1*A2 and G25*T26) [PS-modified SL2-B] , report its measured Kd.
Response given: 17
